Field: pEC50. Provide a value for each of the compounds that follow.
Tested on: mHTT protein
Experiment: mHTT protein assay (2B7-MW1, Mesoscale Discovery)
Type: cell-based, human
Conditions: GM04724 (CAG 70/20) Huntington's disease patient lymphoblast cells, 48 hours, 2B7-MW1 MSD; read-out: HTT Potency - Protein EC50 mHTT (average)
Experimental: Compounds are tested on GM04724 (CAG 70/20) Huntington's disease patient lymphoblast cells at doses ranging from 10 μM to 0.6 nM. 4,500 cells/well are seeded in 384 well plates. […] Compounds are incubated for 48 hours, mHTT protein levels are assessed by the 2B7-MW1 assay via Mesoscale Discovery (MSD) as previously reported (Macdonald et al., 2014). […] The viability readout is carried out by CTG according to the manufacturer's instructions.
pEC50: −log10 of the molar value.

Sample records with pEC50:
compound	pEC50
Oc1cc(-n2ncc3ccccc32)ccc1-c1ccc(O[C@H]2C[C@@H]3CC[C@@H](N3)[C@H]2F)nn1 (single isomer, unassigned)	5.00 to 6.30
Oc1cc(-n2ccnc2)ccc1-c1ccc(O[C@@H]2C[C@H]3CC[C@H](N3)[C@@H]2F)nn1 (single isomer, unassigned)	7.00 to 7.29
Oc1cc(-c2ccc3nccn3c2)ccc1-c1ccc(O[C@@H]2C[C@H]3CCC[C@H](N3)[C@@H]2F)nn1 (single isomer, unassigned)	7.30 to 7.80
Oc1cc(-c2ccnnc2)ccc1-c1ccc(O[C@@H]2C[C@H]3CCC[C@H](N3)[C@@H]2F)nn1 (single isomer, unassigned)	6.30 to 7.00

List reported pEC50 for each of these compounds:
1. Cn1cc(-c2ccc(-c3ccc(O[C@H]4C[C@@H]5CCC[C@@H](N5)[C@@H]4F)nn3)c(O)c2)cn1 (single isomer, unassigned)
2. Oc1cc2cccnc2cc1-c1ccc(O[C@@H]2C[C@H]3CCC[C@H](N3)[C@@H]2F)nn1 (single isomer, unassigned)

Key:
1. 7.30 to 7.80
2. 6.30 to 7.00

* * *

Tested on: MDR1
Test: MDCK-MDR1 permeability assay (BBB penetration potential)
Assay type: in vitro ADME
Settings: dog, MDCK-MDR1, pH 7.4, MDCK-MDR1: Efflux
Protocol: Each determination is performed in duplicate. […] Analytical conditions are outlined below.
Consider the cut-off 10. If the recorded efflux ratio at 120 min, 5 μM is strictly smaller, the label is criterion met; if not, the label is criterion not met.

Recorded results for 5 compounds are shown here.
compound	group
Oc1cc(-c2ccc3nncn3c2)ccc1-c1ccc(O[C@@H]2C[C@H]3CCC[C@H](N3)[C@@H]2F)nn1 (single isomer, unassigned)	criterion not met
Cn1ccc2cc(-c3ccc(O[C@H]4C[C@@H]5CC[C@@H](N5)[C@H]4F)nn3)c(O)cc2c1=O (single isomer, unassigned)	criterion not met
Oc1cc(-c2cn[nH]c2)c(F)cc1-c1ccc(O[C@H]2C[C@@H]3CCC[C@@H](N3)[C@H]2F)nn1 (single isomer, unassigned)	criterion not met
Cc1ccc(-c2ccc(-c3ccc(O[C@H]4C[C@@H]5CCC[C@@H](N5)[C@H]4F)nn3)c(O)c2)o1 (single isomer, unassigned)	criterion met
Cn1ccc(=O)c2cc(O)c(-c3ccc(O[C@H]4C[C@]5(C)CCC[C@@](C)(N5)[C@H]4F)nn3)cc21 (stereo in doubt) [132-ENT2]	criterion not met

Exercise: Consider Cc1ncc(-c2ccc(-c3ccc(O[C@@H]4C[C@H]5CCC[C@H](N5)[C@@H]4F)nn3)c(O)c2)s1 (single isomer, unassigned) . Does its efflux ratio at 120 min, 5 μM lie strictly below 10?
Key: criterion met

* * *

Test system: MDR1
Experiment: MDCK-MDR1 permeability assay (BBB penetration potential)
Assay type: in vitro ADME
Conditions: dog, MDCK-MDR1, pH 7.4, MDCK-MDR1: Papp B-A
Threshold rule: Papp B→A at 120 min, 5 μM greater than or equal to 50 ×10⁻⁶ cm/s is y; below that, n.

Examples with answers:
molecule	group
Oc1cc(-c2cn[nH]c2)ccc1-c1ccc(O[C@H]2C[C@@H]3CC(F)(F)[C@H](C2)N3)nn1 (single isomer, unassigned) [46-ENT1]	n
CN(C)C(=O)c1cc2cc(O)c(-c3ccc(O[C@@H]4C[C@@]5(C)CCC[C@](C)(N5)[C@@H]4F)nn3)cc2o1 (single isomer, unassigned) [155-ENT1]	y
Cn1ccc(-c2cc(O)c(-c3ccc(O[C@@H]4C[C@H]5CCC[C@H](N5)[C@@H]4F)nn3)cc2F)cc1=O (single isomer, unassigned) [58-ENT1]	n
N#Cc1ccc(-c2ccc(O[C@@H]3C[C@H]4CCC[C@H](N4)[C@@H]3F)nn2)c(O)c1 (single isomer, unassigned) [110-ENT1]	y
Oc1cc(-c2cn[nH]c2)ccc1-c1ccc(O[C@@H]2C[C@H]3CCC[C@H](N3)[C@H]2F)nn1 (single isomer, unassigned) [41-ENT2]	n

Exercise: Would you say N#Cc1ccc(-c2ccc(O[C@H]3C[C@@H]4CC[C@@H](N4)[C@H]3F)nn2)c(O)c1 (single isomer, unassigned) [111-ENT2] shows Papp B→A at 120 min, 5 μM at minimum 50 ×10⁻⁶ cm/s?
Key: y

* * *

Tested on: MDR1-MDCK cell monolayers
Experiment: MDCK-MDR1 permeability assay (BBB penetration potential)
Assay type: in vitro ADME
Settings: dog, MDCK-MDR1, 120 min, 5 μM, pH 7.4
attribute.measured: MDCK-MDR1: % Recov A-B

molecule	attribute.measured	recorded.result
Oc1cc(-c2ccccn2)ccc1-c1ccc(O[C@H]2C[C@@H]3CCC[C@@H](N3)[C@H]2F)nn1 (single isomer, unassigned)	MDCK-MDR1: % Recov A-B	57%

Please state MDCK-MDR1: % Recov A-B for every molecule in the list that follows.
1. Cn1ccc2cc(-c3ccc(O[C@@H]4C[C@H]5CCC[C@H](N5)[C@@H]4F)nn3)c(O)cc2c1=O (single isomer, unassigned)
2. Cc1nnc(-c2ccc(-c3ccc(O[C@@H]4C[C@H]5CCC[C@H](N5)[C@@H]4F)nn3)c(O)c2)o1 (single isomer, unassigned)

Key:
1: 84%; 2: 104%

* * *

Assignment: determine reported Papp A→B at 120 min, 5 μM for the given compounds.
Test system: MDR1
Experiment: MDCK-MDR1 permeability assay (BBB penetration potential)
Type: in vitro ADME
Details: dog, MDCK-MDR1, pH 7.4, MDCK-MDR1: Papp A-B
One number for each entry, in ×10⁻⁶ cm/s.

compound	attribute.measured	recorded.result
O=c1cc(-c2ccc(-c3ccc(O[C@H]4C[C@@H]5CCC[C@@H](N5)[C@H]4F)nn3)c(O)c2)ccn1CF (single isomer, unassigned) [106-ENT2]	Papp A→B at 120 min, 5 μM	1.45
C[C@@]12CC[C@@](C)(N1)[C@@H](F)[C@@H](Oc1ccc(-c3ccc(-n4cccn4)cc3O)nn1)C2 (single isomer, unassigned) [153-ENT2]	Papp A→B at 120 min, 5 μM	7.16
Cn1ccc2cc(-c3ccc(O[C@H]4CC5CCC[C@@H](N5)[C@H]4F)nn3)c(O)cc2c1=O (single isomer, unassigned) [125-ENT1]	Papp A→B at 120 min, 5 μM	3.35
Oc1cc(-c2nncs2)ccc1-c1ccc(O[C@H]2C[C@@H]3CC[C@@H](N3)[C@H]2F)nn1 (single isomer, unassigned) [141-ENT1]	Papp A→B at 120 min, 5 μM	9.97
Cn1cc(-c2ccc(-c3ccc(O[C@@H]4C[C@H]5CCC[C@H](N5)[C@@H]4F)nn3)c(O)c2F)cn1 (single isomer, unassigned) [119-ENT1]	Papp A→B at 120 min, 5 μM	3.4

Continue with the compound presented below.
# compound Oc1cc(-c2cnn3ccccc23)ccc1-c1ccc(O[C@@H]2C[C@H]3CCC[C@H](N3)[C@@H]2F)nn1 (single isomer, unassigned) [91-ENT1] ; its Papp A→B at 120 min, 5 μM = 4.52

* * *

Tested on: MDR1
Test: MDCK-MDR1 permeability assay (BBB penetration potential)
Assay type: in vitro ADME
Details: dog, MDCK-MDR1, pH 7.4, MDCK-MDR1: Efflux
attribute.measured: efflux ratio at 120 min, 5 μM
Give bare numbers.

Some solved cases for reference:
molecule	efflux ratio at 120 min, 5 μM
C[C@@]12CCC[C@@](C)(N1)[C@@H](F)[C@@H](Oc1ccc(-c3ccc(-c4cn[nH]c4)cc3O)nn1)C2 (single isomer, unassigned) [147-ENT1]	13
Oc1cc(-n2ccc(F)n2)ccc1-c1ccc(O[C@H]2C[C@@H]3CCC[C@@H](N3)[C@H]2F)nn1 (single isomer, unassigned) [115-ENT2]	2

From here, focus on the item given below.
Documented efflux ratio at 120 min, 5 μM of Oc1cc(-n2ncc3ccccc32)ccc1-c1ccc(O[C@H]2C[C@@H]3CC[C@@H](N3)[C@H]2F)nn1 (single isomer, unassigned) [114-ENT2] : 4

* * *

Tested on: MDR1
Assay: MDCK-MDR1 permeability assay (BBB penetration potential)
Assay type: in vitro ADME
Details: dog, MDCK-MDR1, pH 7.4, MDCK-MDR1: Papp B-A
yes if Papp B→A at 120 min, 5 μM is below 50 ×10⁻⁶ cm/s. no if not; exact matches included in no.

Reference set, count: 5
compound	measured.on	group
Cn1ccc2cc(-c3ccc(O[C@@H]4C[C@@]5(C)CCC[C@](C)(N5)[C@@H]4F)nn3)c(O)cc2c1=O (single isomer, unassigned)	MDR1	no
Cn1ccc2cc(-c3ccc(O[C@H]4C[C@]5(C)CC[C@@](C)(N5)[C@H]4F)nn3)c(O)cc2c1=O (single isomer, unassigned)	MDR1	yes
Oc1cc(-c2ccnnc2)ccc1-c1ccc(O[C@@H]2C[C@H]3CCC[C@H](N3)[C@@H]2F)nn1 (single isomer, unassigned)	MDR1	no
Cc1ccc(-c2ccc(-c3ccc(O[C@@H]4C[C@H]5CCC[C@H](N5)[C@@H]4F)nn3)c(O)c2)o1 (single isomer, unassigned)	MDR1	yes
Cn1cc(-c2ccc(-c3ccc(O[C@H]4C[C@@H]5CCC[C@@H](N5)[C@H]4F)nn3)c(O)c2)cn1 (single isomer, unassigned)	MDR1	yes

Now let's try a different one.
Exercise: Papp B→A at 120 min, 5 μM strictly < 50 ×10⁻⁶ cm/s for this compound? Oc1cc(-c2nncs2)ccc1-c1ccc(O[C@H]2C[C@@H]3CC[C@@H](N3)[C@H]2F)nn1 (single isomer, unassigned)
Key: no
